Where these numbers come from: PubChem BioAssay AID1259416

Test: T. gondii growth inhibition with IFN-gamma, primary screen, cell-based (AID 1259416);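 note: host cells are HeLa cells infected with Toxoplasma gondii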
Conditions: Toxoplasma gondii growth in IFN-gamma-treated host cells; stronger effect = lower value; concentration not given here
Screen size: about 69,000 compounds; about 2,600 (3.8%) were called active. This is one part of a sample in which actives are shown more often than they occur.

# Compound, activity change, negative = inhibition, %
measured = [
    ("COc1ccc2cc(-c3ccccc3NC(=O)CN)ccc2c1", 70.1),
    ("O=C(O)CSc1nnc(-c2ccn[nH]2)n1-c1ccccc1Cl", 55.4),
    ("O=C(Cn1c(C(=O)c2ccccc2)nc2ccccc21)c1ccc(Br)cc1", -103),
    ("CCS(=O)(=O)N1CCC2(CC1)Nc1ccc(C)c(C)c1-n1cccc12", 28),
    ("Brc1ccc(CSc2cccc3cccnc23)cc1", -110),
    ("Cc1nc2c(c(N3CCN(C(=O)c4ccccc4F)CC3)n1)CN(Cc1ccccc1)CC2", -27.3),
    ("C=CCn1cc(-c2c(-c3ccccc3)ncn2CCc2ccccn2)cn1", -1.4),
    ("O=S(=O)(NCc1ccccc1)N1CCCC1c1ccccn1 (stereo unspecified)", -3.86),
    ("CC(C)(C)c1nc(-c2cccc(NS(=O)(=O)c3c(F)cccc3F)c2F)c(-c2ccnc(N)n2)s1", -83.7),
    ("N#Cc1ccc(-c2ccc([C@@H]3[C@H]4CNC[C@@H]3N4Cc3ccc4c(c3)OCO4)cc2)cc1", -70.6),
    ("COc1ccc2c(C3C(=O)c4ccccc4C3=O)nccc2c1", -108),
]
